Where do these numbers come from? They come from PubChem BioAssay (NCI).

assay: NCI Yeast Anticancer Drug Screen. Data for the mec2-1 strain (AID 157)
experimental parameters: S. cerevisiae mec2-1 strain, at 5.0 µM (retest, dose inferred, filed as 0.5), stronger effect = higher value
Description: Growth inhibition of yeast strains with defined genetic alterations is measured as a screen for potential anti-cancer activity. Selected strains with alterations in DNA damage repair or cell cycle control were exposed to compounds and growth inhibition was measured relative to vehicle treated controls. The strain used in this assay is mec2-1
This is part of a sample that, as a whole, favours compounds with a hit. Of some 79,000 tested, about 15% had one in any assay.
quantity measured: growth inhibition (%)
All answers are understood in %, so give the number only.

Report growth inhibition for `CC(C)(Br)C(=O)/C=C/c1ccc(Cl)c(Cl)c1` please. 16

Report growth inhibition for `CCCc1cc(C(=O)OCC)cc(CCC)c1O` please. -47

Report growth inhibition for `CCC/C(Cl)=N\OC(=O)Nc1ccc(Br)cc1` please. -16

Report growth inhibition for `COc1ccc(N=C2C(=O)Nc3ccc(Br)cc32)cc1` please. 48

Report growth inhibition for CC1OCC2OC(C)OC(C3C4=C(CC(C)(C)CC4=O)OC4=C3C(=O)CC(C)(C)C4)C2O1 (stereo unspecified) please. 7

Report growth inhibition for CC1C(NNc2ccccc2)Oc2cc3c(cc2C1c1ccccc1O)OCO3 (stereo unspecified) please. 34

Report growth inhibition for COc1cc(C2c3cc4c(cc3OC(Nc3ccccc3)C2C)OCO4)cc(OC)c1O (stereo unspecified) please. -5

Report growth inhibition for `Cc1cc2c(cc1C(=O)CCC(=O)O)CC1(C2)Cc2cc(C)c(C(=O)CCC(=O)O)cc2C1` please. -4

Report growth inhibition for `O=Nc1c(NO)ccc2nn(-c3ccccc3)nc12` please. 1

Report growth inhibition for `Cc1cc(S(=O)(=O)/N=C(/NN)NNc2cccc(C(F)(F)F)n2)c(S)cc1Cl` please. -7

Report growth inhibition for `O=C1C(Nc2ccccc2)=C(Oc2ccccc2)C(=O)c2ccccc21` please. 3

----------
assay: NCI Yeast Anticancer Drug Screen. Data for the mlh1 strain (AID 171);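 also: 0% = growth of vehicle-treated control cultures of the same strain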
experimental parameters: S. cerevisiae mlh1 strain growth inhibition; at 100.0 µM
The panel holds about 79,000 compounds, 15% with a hit somewhere; the sample as a whole holds those more often. Calls of active or inactive are those of the source. No stated cut-off is given here; in the data, active means growth inhibition above about 70%; inactive means the rest.
Use one of these outcomes when replying: yes (1) (active), no (0) (inactive)

Which result was noted for this molecule in the test: CC(/C=C/c1ccc2c(c1)OCO2)[N+](=O)[O-] (stereo not drawn) yes (1)

Which result was noted for this molecule in the test: `c1ccc(-c2ccnc3c2ccc2c(-c4ccccc4)ccnc23)cc1` yes (1)

Which result was noted for this molecule in the test: `CCCCc1cc(O)ccc1O` no (0)

Which result was noted for this molecule in the test: `CCC(=O)OCCn1c2nc(=O)[nH]c(=O)c-2nc2cc(C)c(C)cc21` yes (1)

Which result was noted for this molecule in the test: `Clc1cccc(C(Nc2nncs2)Nc2nncs2)c1Cl` no (0)

Which result was noted for this molecule in the test: `Cc1ccc(-c2ccc(Nc3c4ccccc4nc4ccccc34)cc2)cn1` yes (1)

Which result was noted for this molecule in the test: `COc1ccccc1N=NC(C(=O)c1ccccc1)C(=O)c1ccccc1` yes (1)

Which result was noted for this molecule in the test: CCCCCCCCCCCCCC[N+](C)(CC(=O)[O-])Cc1ccccc1 (stereo not drawn) yes (1)

Which result was noted for this molecule in the test: `CNC(=O)OCc1c(COC(=O)NC)c(-c2ccc(Cl)c(Cl)c2)n2c1CCC2` yes (1)

Which result was noted for this molecule in the test: C(CCSC1=NCCN1)CSC1=NCCN1 (tested in a mixture with another compound) yes (1)

Which result was noted for this molecule in the test: `CCCCCCCCCCNC(=O)OCC` yes (1)

Which result was noted for this molecule in the test: CC(C)(CN1CCCCC1)C(=O)CC(SCCS(=O)(=O)O)c1ccc(Br)cc1 (stereo not drawn) no (0)

Which result was noted for this molecule in the test: `O=C(O)CNc1ccc(Cl)c(Cl)c1` yes (1)

Which result was noted for this molecule in the test: `O=[N+]([O-])c1cc2no[n+]([O-])c2cc1N1CCCCC1` yes (1)

Which result was noted for this molecule in the test: `COc1ccc(O)c(/C=N\Nc2ccccc2)c1` yes (1)

Which result was noted for this molecule in the test: `CCOC(=O)c1cc([N+](=O)[O-])cc([N+](=O)[O-])c1Sc1ncnc2nc[nH]c12` yes (1)

Which result was noted for this molecule in the test: `O=c1ssc2ncccc12` yes (1)

Which result was noted for this molecule in the test: `O=C(Cc1csc2[n+]1C(=O)/C(=C/c1ccc(Cl)cc1)S2)Nc1ccccc1` yes (1)

Which result was noted for this molecule in the test: COc1ccc(C2c3cc4c(cc3OC(C)(O)C2C)OCO4)c(OC)c1 (stereo not drawn) yes (1)

Which result was noted for this molecule in the test: `C[S+](C)C1(c2ccccc2)C(=O)c2ccccc2C1=O` no (0)

Which result was noted for this molecule in the test: `CN(C)CCn1c2c3ccccc3ccc2c2oc(=O)c3ccccc3c21` yes (1)

Which result was noted for this molecule in the test: `O=C(NC(Nc1ccc(F)c(Cl)c1)(C(F)(F)F)C(F)(F)F)C(C(F)(F)F)C(F)(F)F` yes (1)

Which result was noted for this molecule in the test: COc1cc(C2c3cc4c(cc3OC(Nc3ccccc3)C2C)OCO4)cc(OC)c1O (stereo not drawn) no (0)

----------
assay: NCI Yeast Anticancer Drug Screen. Data for the rad52 strain (AID 147);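 also: 0% = growth of vehicle-treated control cultures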
experimental parameters: S. cerevisiae rad52 mutant growth inhibition; at 11.0 µM; stronger effect = higher value
The panel holds about 79,000 compounds, 15% with a hit somewhere; the sample as a whole holds those more often.
# label = 1 if growth inhibition >= 40% else 0

Given the entry `Cn1c2ccccc2c(=O)c2cc(NC(=O)CCCCC(=O)Nc3ccc4c(c3)c(=O)c3ccccc3n4C)ccc21` , answer whether its growth inhibition meets or surpasses 40%. 0

Given the entry `O=C(CCCN1CCC(O)(c2ccc(Cl)cc2)CC1)c1ccc(F)cc1` , answer whether its growth inhibition meets or surpasses 40%. 0

Given the entry `NC(N)=N/N=C\c1c2ccccc2cc2ccccc12` , answer whether its growth inhibition meets or surpasses 40%. 0

Given the entry `CCCCCCCCCCCC1=C(O)C(=O)C=C(O)C1=O` , answer whether its growth inhibition meets or surpasses 40%. 1

Given the entry `O=[N+]([O-])/C=C/c1ccc2ccccc2c1` , answer whether its growth inhibition meets or surpasses 40%. 1

Given the entry `[O-][n+]1c2ccc(O)cc2nc2ccc(Cl)cc21` , answer whether its growth inhibition meets or surpasses 40%. 1

----------
assay: NCI Yeast Anticancer Drug Screen. Data for the mlh1 strain (AID 171);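 also: 0% = growth of vehicle-treated control cultures of the same strain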
experimental parameters: S. cerevisiae mlh1 strain growth inhibition; at 3.7 µM; stronger effect = higher value
Compounds without any hit were thinned out: in the full panel of roughly 79,000, 15% have a hit.
quantity measured: growth inhibition (%)
All answers are understood in %, so give the number only.

Report growth inhibition for O=C1C2CC[C@@H]3C(=O)C(Cl)(Cl)[C@@H]3CCC2C1(Cl)Cl (stereo not given in full) please. 1

Report growth inhibition for CC(/C=C/c1ccc2c(c1)OCO2)[N+](=O)[O-] (stereo not given) please. 64

Report growth inhibition for `OC1CSCCCSCCSCCCSC1` please. 16

Report growth inhibition for CCOC(=O)[C@H]1Nc2ccccc2C2c3ccccc3CC21 (stereo not given in full) please. 28

Report growth inhibition for `N#CN1C2CCC1CC(=O)C2` please. -11

Report growth inhibition for `CN(C)Cc1cc(N=Nc2ccc(Cl)cc2)cc(CN(C)C)c1O` please. 12

Report growth inhibition for CC(C)(CN1CCCCC1)C(=O)CC(SCCS(=O)(=O)O)c1ccc(Br)cc1 (stereo not given) please. 6

Report growth inhibition for `O=C(COC(=O)c1cc(O)c(O)c(O)c1)c1ccc(-c2ccccc2)cc1` please. 0

Report growth inhibition for `Cc1nc(-[n+]2nc(-c3ccncc3)nn2-c2ccccc2)sc1C` please. -5

Report growth inhibition for `O=C(CCCN1CCC(O)(c2ccc(Cl)cc2)CC1)c1ccc(F)cc1` please. 16

----------
assay: NCI Yeast Anticancer Drug Screen. Data for the mec2-1 strain (AID 157)
experimental parameters: S. cerevisiae mec2-1 strain, at 50.0 µM, stronger effect = higher value
The panel holds about 79,000 compounds, 15% with a hit somewhere; the sample as a whole holds those more often.
# label = yes (1) if growth inhibition >= 40% else no (0)

Given the entry `O=[N+]([O-])c1cccc([N+](=O)[O-])c1S(=O)(=O)c1ccccc1` , answer whether its growth inhibition meets or surpasses 40%. yes (1)

Given the entry `CCN(CC)CC[n+]1ccc2c(C)c3[nH]c4ccc(O)cc4c3c(C)c2c1` , answer whether its growth inhibition meets or surpasses 40%. no (0)

Given the entry `CCCCCCCCCC/C=C\C(=O)O` , answer whether its growth inhibition meets or surpasses 40%. yes (1)

Given the entry `COc1ccc2nc3c([N+](=O)[O-])ccc(NCCN(C)C)c3c(NCCN(C)C)c2c1` , answer whether its growth inhibition meets or surpasses 40%. no (0)

Given the entry CC(Br)C(=O)c1ccc2cc(Br)c3ccccc3c2c1 (stereo unspecified) , answer whether its growth inhibition meets or surpasses 40%. no (0)

Given the entry `CCOC(=O)C1=C(C(=O)c2ccccc2)C(c2ccccc2[N+](=O)[O-])C(C(=O)c2ccccc2)=C(C(=O)OCC)N1` , answer whether its growth inhibition meets or surpasses 40%. no (0)

Given the entry `O=C(O)c1ccccc1NC(=S)c1ccccc1` , answer whether its growth inhibition meets or surpasses 40%. no (0)

Given the entry `CNC(=O)OCc1c(COC(=O)NC)c(-c2ccc(Cl)c(Cl)c2)n2c1CCC2` , answer whether its growth inhibition meets or surpasses 40%. yes (1)

Given the entry `Cc1ccc(N)c(S)c1` , answer whether its growth inhibition meets or surpasses 40%. no (0)

Given the entry `O=[n+]1c2ccc(Cl)cc2n([O-])c2ccc(Cl)cc21` , answer whether its growth inhibition meets or surpasses 40%. no (0)

Given the entry `CN1Cc2ccccc2/C=C\c2ccccc21` , answer whether its growth inhibition meets or surpasses 40%. no (0)
